Values from PubChem BioAssay

assay: PSAC antagonists in infected red cells, primary screen, cell-based, P. falciparum Indochina, OD700, 2 h (AID 1155);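 further: lysis reports solute entry through the parasite surface anion channel PSAC; channel blockers reduce lysis of infected cells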; settings: P. falciparum Indochina infected erythrocytes, osmotic lysis OD700, called active from +8 up or from −8 down
Activity calls are given as the source filed them.
In this exercise, the only acceptable responses are 1 (yes) for active, 0 (no) for inactive

NCCCCCNC(=O)[C@@H]1C[C@@H]2C(=O)NCC(=O)N2[C@@H]1c1cccc(OCCO)c1 : 0 (no)
O=C1O[C@H](c2ccccc2)[C@H](c2ccccc2)N2[C@H]1[C@@H](C(=O)O)[C@]1(C(=O)Nc3ccc(C#CC4=CCCCC4)cc31)[C@H]2c1ccc(O)cc1 : 0 (no)
CCOC(=O)C[C@H]1[C@H](OC(=O)c2cc3ccccc3oc2=O)[C@@H](NC(=O)c2ccc(-c3ccccc3)cc2)c2cc(OCCCO)ccc2N1C(=O)c1ccc2ccccc2n1 : 0 (no)
O=C(NCc1ccccc1)[C@@H]1c2ccccc2C(=O)N(Cc2ccccc2C(F)(F)F)[C@H]1c1ccc(CO)cc1 : 0 (no)
CCOC(=O)[C@H]1[C@@H]2C(=O)N3CCC[C@H]3[C@H](O[Si](C(C)C)(C(C)C)C(C)C)[C@H]2C=C2CCN(S(=O)(=O)c3ccc(C)cc3)C[C@H]21 : 0 (no)

Test call, this molecule: COC(=O)[C@@]1(Cc2ccc(OC)cc2)[C@H]2c3cc(C(=O)N4CCCC4)n(Cc4cccc5ccccc45)c3C[C@H]2CN1C(=O)c1ccccc1 0 (no)

Test call, this molecule: CCCCCCc1nc(C2CC2)cc2c1[Si](C(C)C)(C(C)C)O[C@H]2c1ccccc1 0 (no)

Test call, this molecule: CC(C)C[C@@H]1NC(=O)[C@@H]2C[C@H](C(=O)NCCCCN(C)C)[C@H](c3cccc(OCCO)c3)N2C1=O 0 (no)

----------
Recorded z-score, one value per entry.
test: PSAC antagonists in infected red cells, primary screen, cell-based, P. falciparum Indochina, OD700, 18 h (AID 1157); conditions: P. falciparum Indochina infected erythrocytes, osmotic lysis OD700, 18 h; higher = more signal, called active from +8 up or from −8 down
When you answer, write just the number.

These solved cases illustrate the format of a correct answer.
CN1C(=O)C2C=CC(C(O)c3ccc(F)cc3)N(Nc3ccccc3)C2C1=O (stereo not given) : 0.582
COc1ccc(CN(C2=CC[C@@]3(C(N)=O)C(=O)C(Cl)=C(Cl)C(=O)[C@@]3(C#N)C2)S(=O)(=O)c2ccc(Br)cc2)cc1 : -2.3
CC(C)(C)N1CC=CC23O[C@@H]4C=CCCOC(=O)C4[C@H]2C(=O)N(CCO)[C@@H]3C1=O (stereo not given in full) : 0.6
NCCCCCNC(=O)[C@@H]1C[C@@H]2C(=O)NCC(=O)N2[C@@H]1c1cccc(OCCO)c1 : 0.154
C=CCC(OC(C)=O)[C@@H]1[C@@H](N(Cc2ccc(-c3cccc(C(F)(F)F)c3)o2)C(=O)c2ccc(C)cc2)c2cc(OCCCO)ccc2N1C(=O)c1ccc2ccccc2c1 (stereo not given in full) : -0.109

I am curious: what z-score value has been reported for COc1cc(OC)c(C(O)C2C=CC3C(=O)N(C)C(=O)C3N2NC(=O)OC(C)(C)C)cc1Br (stereo not given) ? 1.07

I am curious: what z-score value has been reported for CCCCC(O)C1C=CC2C(=O)N(c3ccccc3)C(=O)C2N1Nc1ccc(C(C)C)cc1 (stereo not given) ? 1.39

I am curious: what z-score value has been reported for N#Cc1ccc(C(O)C2C=CC3C(=O)N(c4ccccc4)C(=O)C3N2Nc2ccccc2)cc1 (stereo not given) ? -0.889

I am curious: what z-score value has been reported for Cc1ccc(S[C@]2(C(=O)NCC(F)(F)F)CC(=O)N(C3CCCCC3)[C@@H]2c2ccc(CO)cc2I)cc1 ? 0.524

I am curious: what z-score value has been reported for C=C[C@@H](COC(C)=O)N(C(=O)OC(C)(C)C)S(=O)(=O)c1ccc(Br)cc1 ? 0.0566

I am curious: what z-score value has been reported for C=CCNC(=O)[C@@H]1[C@H]2C(=O)O[C@H](c3ccccc3)[C@H](c3ccccc3)N2[C@H](c2ccc(O)cc2)[C@@]12C(=O)N(C(=O)OCCOC)c1ccc(C#CC3(O)CCCCCC3)cc12 ? 0.682

I am curious: what z-score value has been reported for CN(C)C(=O)[C@@]1(Cc2ccccc2CN=[N+]=[N-])N=C(c2ccc(OCCCO)cc2)O[C@H]1c1ccccc1CN=[N+]=[N-] ? 0.515

I am curious: what z-score value has been reported for COC(=O)[C@H](Cc1ccccc1)N1CC(/C=C/C2CC2)=C[C@H]1[C@H](O)Cc1ccccc1 ? 0.5

I am curious: what z-score value has been reported for COCCCNC(=O)[C@]1(CCS(=O)(=O)c2ccccc2)N=C(c2ccc(OCCCO)cc2)O[C@@H]1c1ccccc1CN=[N+]=[N-] ? 1.8

I am curious: what z-score value has been reported for C[C@@H]1NC(=O)[C@@]23C(=O)N[C@@H](Cc4ccccc4)C2[C@H](C)[C@@]2(C)O[C@H]2C3/C=C/C/C=C\CNC(=O)[C@@H]2CCCN2C1=O (stereo not given in full) ? -0.161

----------
target: Torsin-1A (Homo sapiens) (UniProt O14656); assay: small-molecule binders of mutant TOR1A in lysate, primary screen, cell lysate, small-molecule microarray, COS7 lysate, 635/667 nm fluorescence (AID 1150); settings: COS7 hTOR1A mutant lysate, 635 nm fluorescence, higher = more signal;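 further: score pools 667 nm emission and signal to noise measuring lysate protein binding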
Sequence (O14656 whole entry, looked up): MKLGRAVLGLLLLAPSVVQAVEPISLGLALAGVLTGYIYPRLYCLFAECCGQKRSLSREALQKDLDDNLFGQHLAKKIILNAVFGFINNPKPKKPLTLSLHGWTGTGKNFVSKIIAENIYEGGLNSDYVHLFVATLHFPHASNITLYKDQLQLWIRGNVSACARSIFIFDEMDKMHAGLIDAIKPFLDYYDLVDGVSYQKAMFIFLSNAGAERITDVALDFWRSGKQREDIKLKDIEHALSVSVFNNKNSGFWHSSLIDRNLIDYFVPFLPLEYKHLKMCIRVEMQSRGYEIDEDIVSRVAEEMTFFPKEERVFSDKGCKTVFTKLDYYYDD
attribute.measured: composite z-score
When you answer, write just the number.

These solved cases illustrate the format of a correct answer.
O=C1NC(=O)C2C1C=CC(C(O)c1ccco1)N2Nc1ccccn1 (configuration not stated) : 0.316
CC(C)C(=C=CC[C@H](O)c1ccc(OCCO)cc1)C[C@H](O)c1ccccn1 : 0.995
C=CCC(OC(C)=O)[C@@H]1[C@@H](N(Cc2cc3ccccc3o2)C(=O)Cc2ccc(F)cc2)c2cc(OCCCO)ccc2N1C(=O)c1ccc2ccccc2c1 (some centres not stated) : 0.237

Consider the record given below.
I am curious: what composite z-score value has been reported for C=CCOC(=O)[C@H]1[C@@H]2C(=O)O[C@@H](c3ccccc3)[C@@H](c3ccccc3)N2[C@@H](c2ccc(OCCOC(=O)[C@@H]3C[C@@H]4C(=O)N[C@@H](CCCCNC(C)=O)C(=O)N4[C@@H]3c3ccc(O)cc3)cc2)[C@]12C(=O)Nc1ccc(I)cc12 ? 1.15

----------
Recorded z-score, one value per entry.
test: E. coli acrAB mutant growth effects, primary screen, E. coli filamentation inducers, strain DRC39, OD650, 48 h (AID 1179);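 further: screen aims at cell division blockers that make cells filament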; conditions: E. coli DRC39 delta-acrAB growth, higher = more signal, called active from +8 up or from −8 down
Calls of active or inactive are those of the source.

These solved cases illustrate the format of a correct answer.
CC(C)[Si](C#CCCCC#N)(O[C@H](c1ccccc1)c1cn([C@H](CO)Cc2ccccc2)nn1)C(C)C : 0.362 (inactive)
COc1ccc([Si](C)(C)[C@H]2[C@H](CCO)O[C@@]3(C(=O)N(Cc4cccc(N5C(=O)COc6ccccc65)c4)c4ccccc43)[C@@H]2C)cc1 : 1.92 (inactive)

Consider the record given below.
I am curious: what z-score value has been reported for O=C1O[C@H](c2ccccc2)[C@H](c2ccccc2)N2[C@H]1[C@@H](C(=O)Nc1nc3ccccc3s1)[C@]1(C(=O)Nc3ccc(C#CC4(O)CCCCCC4)cc31)[C@H]2c1ccccc1OCCO ? -0.508 (inactive)

----------
assay: Plasmodium falciparum growth inhibition, primary screen, strain 3D7, DAPI fluorescence, 100 nL (AID 1184);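 further: parasites grown inside human red blood cells in medium with human serum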; conditions: P. falciparum 3D7 growth, 3 d, higher = more signal
Tag: True if measured z-score is not below -1, False if it is.

These solved cases illustrate the format of a correct answer.
O=C(NCC(F)(F)F)[C@@H]1c2ccccc2C(=O)N(Cc2cc(F)cc(C(F)(F)F)c2)[C@H]1c1ccc(CO)cc1 : False
NC(=O)N1C(=O)C2C(C1=O)C1C=C(CCCO)C2C(c2cccs2)N1Cc1cccc(OC(F)(F)F)c1 (stereo not given) : True
C=CCC(OC(C)=O)[C@@H]1[C@@H](N(Cc2ccc(-c3cccc(C(F)(F)F)c3)o2)C(=O)c2ccc(-c3ccccc3)cc2)c2cc(OCCCO)ccc2N1C(=O)c1ccc2ccccc2n1 (stereo not given in full) : True
COC(=O)[C@@]1(Cc2ccc(F)cc2)[C@H]2c3cc(C(=O)N4CCCC4)n(CCc4ccc(O)c(O)c4)c3C[C@H]2CN1C(=O)c1ccccc1 : False

Assess whether reported z-score for Cc1ccccc1C(O)C1C=CC2C(=O)N(C)C(=O)C2N1N(c1ccccc1)c1ccccc1 (stereo not given) sits at -1 or higher. True

Assess whether reported z-score for Cc1cc(C)c(C(O)C2C=CC3C(=O)NC(=O)C3N2Nc2ccc(Cl)cc2Cl)c(C)c1 (stereo not given) sits at -1 or higher. True

Assess whether reported z-score for CCOC(=O)C[C@H]1[C@H](OC(=O)c2cc3ccccc3oc2=O)[C@@H](NC(=O)c2ccc(-c3ccccc3)cc2)c2cc(OCCCO)ccc2N1C(=O)c1ccccc1 sits at -1 or higher. False

Assess whether reported z-score for CCCCCCc1nc(C2CC2)cc2c1[Si](C(C)C)(C(C)C)OC2 sits at -1 or higher. False

Assess whether reported z-score for C[C@]1(C(=O)NC2CC2)c2ccccc2C(=O)N(Cc2ccccc2)[C@H]1c1ccc(CO)cc1 sits at -1 or higher. False

Assess whether reported z-score for CCOC(=O)c1ccc(NC(=O)O[C@H]2[C@H](OC(=O)Nc3ccc4c(c3)OCO4)[C@H](OC(=O)Nc3ccc4c(c3)OCO4)[C@@H](OC)O[C@@H]2CO)cc1 sits at -1 or higher. False

Assess whether reported z-score for CC1CC/C=C\[C@H]2OC34C=CCN(c5ccc(Cl)cc5)C(=O)[C@H]3N(CCCCCO)C(=O)[C@]4(C)C2C(=O)O1 (stereo not given in full) sits at -1 or higher. True

Assess whether reported z-score for CC(C)(C)OC(=O)CC[C@@]1(C(=O)NCc2ccccc2)N=C(c2ccc(OCCCO)cc2)O[C@@H]1c1ccccc1N=[N+]=[N-] sits at -1 or higher. False

Assess whether reported z-score for COCC1=C2[C@@H](CCc3ccccc3)OB(O)C[C@@H]2[C@@H]2C(=O)C=CC(=O)[C@@H]2C1 sits at -1 or higher. False

Assess whether reported z-score for CCCC[C@@H]1C[C@H]1[C@@H](NC(=O)Cc1ccccc1)c1ccc(-c2ccccc2)cc1 sits at -1 or higher. True

Assess whether reported z-score for CCCCN1CC=CC23O[C@@H]4/C=C\CCC(C)OC(=O)C4[C@H]2C(=O)N(C(CO)C(C)C)[C@@H]3C1=O (stereo not given in full) sits at -1 or higher. True
